Listed below: phage ELISA signal ratio values for each entry.
- TESTED_TARGET: T1, ARID4A 568-634 Tudor-knot (domain begin residue: 568, domain end residue: 634), P29374
- T1 chain: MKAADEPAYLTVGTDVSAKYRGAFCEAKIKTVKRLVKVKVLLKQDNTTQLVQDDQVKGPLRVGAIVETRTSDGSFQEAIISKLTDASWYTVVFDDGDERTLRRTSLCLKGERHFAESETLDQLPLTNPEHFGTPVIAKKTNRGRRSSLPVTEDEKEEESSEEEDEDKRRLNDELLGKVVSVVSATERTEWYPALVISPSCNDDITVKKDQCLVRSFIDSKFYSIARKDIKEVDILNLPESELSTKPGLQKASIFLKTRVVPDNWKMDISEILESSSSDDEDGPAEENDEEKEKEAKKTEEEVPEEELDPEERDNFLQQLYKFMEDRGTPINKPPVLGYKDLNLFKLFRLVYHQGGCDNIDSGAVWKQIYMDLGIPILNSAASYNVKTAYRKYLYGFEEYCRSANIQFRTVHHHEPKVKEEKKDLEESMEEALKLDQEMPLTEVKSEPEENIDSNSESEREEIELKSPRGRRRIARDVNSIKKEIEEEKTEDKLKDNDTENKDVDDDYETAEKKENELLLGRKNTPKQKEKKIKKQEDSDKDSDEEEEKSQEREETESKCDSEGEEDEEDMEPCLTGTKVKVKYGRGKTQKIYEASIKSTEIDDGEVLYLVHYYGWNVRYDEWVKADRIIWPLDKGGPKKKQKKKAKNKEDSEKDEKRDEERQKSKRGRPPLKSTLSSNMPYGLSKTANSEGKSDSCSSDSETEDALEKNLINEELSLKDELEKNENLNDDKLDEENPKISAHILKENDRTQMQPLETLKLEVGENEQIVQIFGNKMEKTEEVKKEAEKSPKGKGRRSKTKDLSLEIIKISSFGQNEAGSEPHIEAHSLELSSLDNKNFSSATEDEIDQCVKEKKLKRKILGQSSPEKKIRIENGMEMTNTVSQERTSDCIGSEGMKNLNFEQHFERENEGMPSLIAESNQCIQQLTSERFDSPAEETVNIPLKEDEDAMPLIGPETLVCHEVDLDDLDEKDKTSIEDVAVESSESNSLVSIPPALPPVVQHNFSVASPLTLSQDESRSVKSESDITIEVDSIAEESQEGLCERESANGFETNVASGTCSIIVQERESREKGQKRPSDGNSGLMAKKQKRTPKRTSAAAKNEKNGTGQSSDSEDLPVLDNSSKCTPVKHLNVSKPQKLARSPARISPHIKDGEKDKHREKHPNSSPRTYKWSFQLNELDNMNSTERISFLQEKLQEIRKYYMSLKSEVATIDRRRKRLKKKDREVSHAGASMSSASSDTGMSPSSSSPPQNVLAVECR
- EXPERIMENT_NOTES: phage ELISA signal ratio (GST-PRM binding over GST background); higher = stronger binding of peptide-phage to the PRM
PARAMETER_MEASURED: phage ELISA signal ratio

{"BINDER": "DGWGWDHIEIEMPYEE", "MEASURED_RESULT": 12.4}
{"BINDER": "WGWDEMLNDPEIMRIV", "MEASURED_RESULT": 12.7}
{"BINDER": "NWDMWMEEQYDPSVML", "MEASURED_RESULT": 9.12}
{"BINDER": "DWWDMWAQGDILEIHS", "MEASURED_RESULT": 11.5}
{"BINDER": "EQLEPWLMPGQSQLFG", "MEASURED_RESULT": 9.13}
{"BINDER": "HFIELMYDAPEMHMPW", "MEASURED_RESULT": 5.33}
